A collection of molecules and their measured change in vivo at 100 mg/kg
Tested on: cholesterol level in the plasma
Assay: Hypocholesterolemic activity: plasma cholesterol level in rats
Type: in vivo, male Wistar rats
Conditions: Rattus norvegicus, po; 100 mg/kg p.o. at T=0 and T=+7 hours; T=0 to T=+24 hours; not corrected for the variation in the control group; read-out: % Variation in the cholesterol level, variation in the subject treated
Give your result in % as a bare value.

## Input // output change in vivo at 100 mg/kg; input CN(C)c1ccc(Cc2ccc(O[C@@H]3OC[C@@H](O)[C@H](O)[C@H]3O)cc2)cc1 [Example 20] ; system cholesterol level in the plasma
## Output -22

## Input Supply change in vivo at 100 mg/kg measured with cholesterol level in the plasma for O[C@@H]1[C@@H](O)[C@H](Oc2ccc(Cc3ccccc3)cc2)OC[C@H]1O [Example 33, 4-(benzyl)phenyl β-D-xylopyranoside] .
## Output -38

## Input Specify change in vivo at 100 mg/kg for CSc1ccc(Cc2ccc(O[C@@H]3OC[C@@H](O)[C@H](O)[C@H]3O)cc2)cc1 [Example 85] , system cholesterol level in the plasma.
## Output -23

## Input Please report change in vivo at 100 mg/kg with cholesterol level in the plasma for item Nc1ccc(Cc2ccc(O[C@@H]3OC[C@@H](O)[C@H](O)[C@H]3O)cc2)cc1 [Example 19] .
## Output -29

## Input Print cholesterol level in the plasma change in vivo at 100 mg/kg for O[C@@H]1[C@@H](O)[C@H](Oc2cccc(Cc3ccc(Cl)cc3)c2)OC[C@H]1O [Example 75] .
## Output -43

## Input Print cholesterol level in the plasma change in vivo at 100 mg/kg for C[C@@H]1O[C@@H](Oc2ccc(Cc3ccc([N+](=O)[O-])cc3)cc2)[C@H](O)[C@H](O)[C@H]1O [Example 5] .
## Output -7

## Input Write down measured change in vivo at 100 mg/kg (cholesterol level in the plasma) for this molecule. O[C@@H]1[C@@H](O)[C@H](Oc2ccc(Cc3ccccc3Cl)cc2)OC[C@H]1O [Example 7]
## Output -20

## Input State measured change in vivo at 100 mg/kg of the molecule O[C@@H]1[C@@H](O)[C@H](Oc2ccc(Cc3ccc(Br)cc3)cc2)OC[C@H]1O [Example 10] with cholesterol level in the plasma.
## Output -39

## Input Give change in vivo at 100 mg/kg; test system cholesterol level in the plasma; molecule CC(=O)N[C@H]1[C@H](Oc2ccc(Cc3ccc(S(C)(=O)=O)cc3)cc2)O[C@H](CO)[C@@H](O)[C@@H]1O [Example 93]
## Output -36

## Input Enter change in vivo at 100 mg/kg (test system cholesterol level in the plasma) for O[C@@H]1[C@@H](O)[C@H](Oc2cccc(Cc3ccccc3)c2)OC[C@H]1O [Example 77]
## Output -25

====

System: mice
Experiment: Acute toxicity, intraperitoneal administration to mice
Format: in vivo
Conditions: i.p.
MEASURED_QUANTITY: LD0 (maximum non-lethal dose)

Would you please look over these solved cases?
{"COMPOUND": "COc1ccc(Cc2ccc(O[C@@H]3OC[C@@H](O)[C@H](O)[C@H]3O)cc2)cc1", "LD0 (maximum non-lethal dose)": "> 800 mg/kg"}
{"COMPOUND": "CC(=O)N[C@H]1[C@H](Oc2ccc(Cc3ccc(S(C)(=O)=O)cc3)cc2)O[C@H](CO)[C@@H](O)[C@@H]1O", "LD0 (maximum non-lethal dose)": "> 800 mg/kg"}
{"COMPOUND": "O=[N+]([O-])c1ccc(Cc2ccc(O[C@@H]3O[C@H](CO)[C@@H](O)[C@H](O)[C@H]3O)cc2)cc1", "LD0 (maximum non-lethal dose)": "≥ 900 mg/kg"}
{"COMPOUND": "O[C@@H]1[C@@H](O)[C@H](Oc2ccc(Cc3ccc(Br)cc3)cc2)OC[C@H]1O", "LD0 (maximum non-lethal dose)": "≥ 900 mg/kg"}

## Input Recall and state the measured LD0 (maximum non-lethal dose) for O=[N+]([O-])c1ccc(Cc2ccc(O[C@@H]3OC[C@H](O)[C@H](O)[C@H]3O)cc2)cc1 .
## Output ≥ 900 mg/kg

## Input Specify LD0 (maximum non-lethal dose) for Nc1cccc(Cc2ccc(O[C@@H]3OC[C@@H](O)[C@H](O)[C@H]3O)cc2)c1 and stop.
## Output ≥ 900 mg/kg

## Input Identify LD0 (maximum non-lethal dose) associated with the compound Cc1cc(Cc2ccc([N+](=O)[O-])cc2)cc(C)c1OC1OC[C@@H](O)[C@H](O)[C@H]1O (stereo partly drawn)
## Output > 800 mg/kg

## Input Supply recorded LD0 (maximum non-lethal dose) for Oc1ccc(Cc2ccc(O[C@@H]3OC[C@@H](O)[C@H](O)[C@H]3O)cc2)cc1 here.
## Output ≥ 800 mg/kg

## Input Note down LD0 (maximum non-lethal dose) recorded for Cc1cc(C)c(Cc2ccc(O[C@@H]3OC[C@@H](O)[C@H](O)[C@H]3O)cc2)c(C)c1
## Output ≥ 800 mg/kg

## Input Give reported LD0 (maximum non-lethal dose) value for Cc1cccc(Cc2ccc(O[C@@H]3OC[C@@H](O)[C@H](O)[C@H]3O)cc2)c1
## Output ≥ 800 mg/kg

## Input Recall and state the measured LD0 (maximum non-lethal dose) for CC(=O)N[C@H]1[C@H](Oc2ccc(Cc3ccc([N+](=O)[O-])cc3)cc2)O[C@H](CO)[C@@H](O)[C@@H]1O .
## Output > 800 mg/kg

## Input For the compound O=[N+]([O-])c1ccc(Cc2ccc(O[C@@H]3O[C@H](CO)[C@H](O)[C@H](O)[C@H]3O)cc2)cc1 , give its measured LD0 (maximum non-lethal dose) value.
## Output ≥ 900 mg/kg

## Input Please look at this compound and report its LD0 (maximum non-lethal dose): Nc1ccc(Cc2ccc(O[C@@H]3OC[C@@H](O)[C@H](O)[C@H]3O)cc2)cc1
## Output > 800 mg/kg

## Input Give LD0 (maximum non-lethal dose) for the following compound: O[C@@H]1[C@@H](O)[C@H](Oc2ccc(Cc3ccccc3)cc2)OC[C@H]1O [Example 33, 4-(benzyl)phenyl β-D-xylopyranoside]
## Output > 800 mg/kg

## Input Indicate the recorded LD0 (maximum non-lethal dose) value for this compound: O[C@@H]1[C@@H](O)[C@H](Oc2ccc(Cc3ccc(Cl)cc3)cc2)OC[C@H]1O
## Output > 800 mg/kg

====

Test system: cholesterol level in the plasma
Experiment: Hypocholesterolemic activity: plasma cholesterol level in rats
Type: in vivo, male Wistar rats
Settings: Rattus norvegicus, po; 100 mg/kg p.o. at T=0 and T=+7 hours; T=0 to T=+24 hours; not corrected for the variation in the control group; read-out: % Variation in the cholesterol level, variation in the subject treated
# change in vivo at 100 mg/kg values compiled below
// note: answer is a bare numeric in %

Before answering, review these 3 worked examples.
{"COMPOUND": "Cc1cc(C)c(Cc2ccc(O[C@@H]3OC[C@@H](O)[C@H](O)[C@H]3O)cc2)c(C)c1 [Example 27]", "VALUE_UNIT": "%", "change in vivo at 100 mg/kg": -13}
{"COMPOUND": "O[C@@H]1[C@@H](O)[C@H](Oc2ccc(Cc3ccc(Cl)cc3Cl)cc2)OC[C@H]1O [Example 26]", "VALUE_UNIT": "%", "change in vivo at 100 mg/kg": -8}
{"COMPOUND": "CC(=O)N[C@H]1[C@H](Oc2ccc(Cc3ccc([N+](=O)[O-])cc3)cc2)O[C@H](CO)[C@@H](O)[C@@H]1O [Example 3]", "VALUE_UNIT": "%", "change in vivo at 100 mg/kg": -42}

## Input Supply change in vivo at 100 mg/kg value. Item: O[C@@H]1[C@@H](O)[C@H](Oc2ccc(Cc3cccc(Cl)c3)cc2)OC[C@H]1O [Example 8]
## Output -37

## Input Tell me change in vivo at 100 mg/kg reported for O[C@@H]1[C@@H](O)[C@H](Oc2ccc(Cc3ccc(C(F)(F)F)cc3)cc2)OC[C@H]1O [Example 18]
## Output -17

## Input Complete the entry with change in vivo at 100 mg/kg for O[C@@H]1[C@@H](O)[C@H](Oc2ccc(Cc3ccc(Cl)cc3)cc2)OC[C@H]1O [Example 9]
## Output -37

## Input Tell us which change in vivo at 100 mg/kg value is on record for Oc1ccc(Cc2ccc(O[C@@H]3OC[C@@H](O)[C@H](O)[C@H]3O)cc2)cc1 [Example 29]
## Output -37

## Input Quick one: give measured change in vivo at 100 mg/kg for COc1cccc(Cc2ccc(O[C@@H]3OC[C@@H](O)[C@H](O)[C@H]3O)cc2)c1 [Example 17]
## Output -50

====

Measured LD0 (maximum non-lethal dose) accompanies every entry in the list below.
Test system: mice
Experiment: Acute toxicity, intraperitoneal administration to mice
Type: in vivo
Conditions: i.p.

Use these answered entries as a reference point.
{"COMPOUND": "Cc1ccccc1Cc1ccc(O[C@@H]2OC[C@@H](O)[C@H](O)[C@H]2O)cc1 [Example 12]", "DATA_VALUE": "> 800 mg/kg"}
{"COMPOUND": "COc1cccc(Cc2ccc(O[C@@H]3OC[C@@H](O)[C@H](O)[C@H]3O)cc2)c1 [Example 17]", "DATA_VALUE": "> 1000 mg/kg"}
{"COMPOUND": "CS(=O)(=O)c1ccc(Cc2ccc(O[C@@H]3O[C@H](CO)[C@@H](O)[C@H](O)[C@H]3O)cc2)cc1 [Example 91]", "DATA_VALUE": "> 800 mg/kg"}
{"COMPOUND": "O=[N+]([O-])c1cccc(Cc2ccc(O[C@@H]3OC[C@@H](O)[C@H](O)[C@H]3O)cc2)c1 [Example 2]", "DATA_VALUE": "> 800 mg/kg"}
{"COMPOUND": "Cc1ccc(Cc2ccc(O[C@@H]3OC[C@@H](O)[C@H](O)[C@H]3O)cc2)cc1 [Example 11]", "DATA_VALUE": "> 800 mg/kg"}

## Input GET LD0 (maximum non-lethal dose) where system = mice and item = CC(=O)O[C@@H]1[C@@H](OC(C)=O)[C@H](Oc2ccc(Cc3c(C)cc(C)cc3C)cc2)OC[C@H]1OC(C)=O [Example 62]
## Output > 900 mg/kg

## Input Return reported LD0 (maximum non-lethal dose) for target or system mice, item O[C@@H]1[C@@H](O)[C@H](Oc2ccc(Cc3ccccc3Cl)cc2)OC[C@H]1O [Example 7] .
## Output > 800 mg/kg

## Input Supply LD0 (maximum non-lethal dose) measured with mice for CSc1ccc(Cc2ccc(O[C@@H]3OC[C@@H](O)[C@H](O)[C@H]3O)cc2)cc1 [Example 85] .
## Output > 800 mg/kg
